Cited source for all entries: ChEMBL document CHEMBL3739411

# testName: Half life of the compound in phosphate buffer at pH 5.4 in presence of cysteine
# Assay type: ADME
# conditionSet: phosphate buffer with cysteine
recordedEndpoint: half-life

[ask] Could you tell me which half-life is on file for CC1=C2C(=CC(C)(C)[C@@H]2O)C(=O)[C@@](C)(O)C12CC2 ?
[reply] 5.6 min

[ask] Tell me the measured half-life of CC1=C2C(=CC(C)(C)[C@H]2O)C(=O)[C@@](C)(O)C12CC2 , please.
[reply] 27 min

----------
Record form. Attribute: half-life. Fill in for each entry.
# testName: Half life of the compound in aqueous HCl
# Type: physicochemical
Could you kindly put the unit after your number?

[ask] Please look up its half-life: CC1=C2C(=CC(C)(C)[C@@H]2O)C(=O)[C@@](C)(O)C12CC2
[reply] 0.633 h

[ask] Name the reported half-life value associated with the compound CC1=C2C(=CC(C)(C)[C@H]2O)C(=O)[C@@](C)(O)C12CC2
[reply] 2.83 h

[ask] Quick check: half-life of CC1=C2C(=CC(C)(C)[C@@H]2O)C(=O)[C@](C)(O)C12CC2 ?
[reply] 2.45 h
